Measured ΔG, listed per entry for reference.
# target: 14-3-3γ (Homo sapiens)
# Construct: made in house; host or cells: E. coli NiCo21 (DE3)
# assay-text: Isothermal titration calorimetry (ITC) of 14-3-3 binding to peptide
# measurement-conditions: Table S5; ITC, 25 °C; mean of n = 2
Where a SMILES comes first, the peptide text is derived from it. [ ]: non-standard residue; d: D form. ξ: configuration not given here. Phe(4-NO2) = N[C@@H](Cc1ccc([N+](=O)[O-])cc1)C(=O)O; ξAla(4-thiazolyl) = NC(Cc1cscn1)C(=O)O; pS = N[C@@H](COP(=O)(O)O)C(=O)O; β3hS = N[C@@H](CO)CC(=O)O; Nva = CCC[C@H](N)C(=O)O; βAla = NCCC(=O)O
Give your result in kcal/mol as a bare value.

1) CCC[C@H](NC(=O)[C@H](N)CCCCN)C(=O)N[C@@H](Cc1ccc([N+](=O)[O-])cc1)C(=O)NC(Cc1cscn1)C(=O)N[C@@H](COP(=O)(O)O)C(=O)N[C@@H](Cc1ccccc1)C(=O)N[C@@H](CO)CC(=O)NCCC(=O)N[C@@H](Cc1ccc([N+](=O)[O-])cc1)C(=O)N[C@@H](CCCCN)C(N)=O (stereo partly drawn) [4b] (H-[dK][Nva][Phe(4-NO2)][ξAla(4-thiazolyl)][pS]F[β3hS][βAla][Phe(4-NO2)]K-NH2; N-terminus and C-terminus assumed); -10.2

Entry CCC[C@H](NC(=O)[C@H](N)CCCCN)C(=O)N[C@@H](Cc1ccc([N+](=O)[O-])cc1)C(=O)NC(Cc1cscn1)C(=O)N[C@@H](COP(=O)(O)O)C(=O)N[C@@H](Cc1ccc([N+](=O)[O-])cc1)C(=O)N[C@@H](CO)CC(=O)NCCC(=O)N[C@@H](Cc1ccc(O)cc1)C(=O)N[C@@H](CCCCN)C(N)=O (stereo partly drawn) [5a] (H-[dK][Nva][Phe(4-NO2)][ξAla(4-thiazolyl)][pS][Phe(4-NO2)][β3hS][βAla]YK-NH2; N-terminus and C-terminus assumed) — recorded ΔG = -7.8

###

Reported Fold change to previous by item:
# target: 14-3-3γ (Homo sapiens)
# Construct: made in house; host or cells: E. coli NiCo21 (DE3)
# assay-text: Fluorescence anisotropy (FA) binary binding study: 14-3-3 titrated to fluorescein-labelled peptide
# measurement-conditions: Table S2; KD / KD of previous (one amino acid longer) peptide; replicate 2
Where a SMILES comes first, the peptide text is derived from it. [ ]: non-standard residue; d: D form. The star is where a group is joined. ξ: configuration not given here. FITC = O=C1OC2(c3ccc(O)cc3Oc3cc(O)ccc32)c2ccc(NC(=S)*)cc21; Phe(4-NO2) = N[C@@H](Cc1ccc([N+](=O)[O-])cc1)C(=O)O; ξAla(4-thiazolyl) = NC(Cc1cscn1)C(=O)O; pS = N[C@@H](COP(=O)(O)O)C(=O)O; β3hS = N[C@@H](CO)CC(=O)O; Nva = CCC[C@H](N)C(=O)O; βAla = NCCC(=O)O

1) CCC[C@H](N)C(=O)N[C@@H](Cc1ccc([N+](=O)[O-])cc1)C(=O)NC(Cc1cscn1)C(=O)N[C@@H](COP(=O)(O)O)C(=O)N[C@@H](Cc1ccc([N+](=O)[O-])cc1)C(=O)N[C@@H](CO)CC(=O)NCCC(=O)N[C@@H](Cc1ccc([N+](=O)[O-])cc1)C(=O)N[C@@H](CCCCN)C(=O)N[C@@H](C)C(=O)N[C@@H](CCCCNC(=S)Nc1ccc2c(c1)C(=O)OC21c2ccc(O)cc2Oc2cc(O)ccc21)C(N)=O (stereo partly drawn) [2a] (H-[Nva][Phe(4-NO2)][ξAla(4-thiazolyl)][pS][Phe(4-NO2)][β3hS][βAla][Phe(4-NO2)]KAK(FITC)-NH2); 2,56
2) C[C@H](NC(=O)[C@H](CCCCN)NC(=O)[C@H](Cc1ccc([N+](=O)[O-])cc1)NC(=O)CCNC(=O)C[C@H](CO)NC(=O)[C@H](Cc1ccc([N+](=O)[O-])cc1)NC(=O)[C@H](COP(=O)(O)O)NC(=O)C(N)Cc1cscn1)C(=O)N[C@@H](CCCCNC(=S)Nc1ccc2c(c1)C(=O)OC21c2ccc(O)cc2Oc2cc(O)ccc21)C(N)=O (stereo partly drawn) [2c] (H-[ξAla(4-thiazolyl)][pS][Phe(4-NO2)][β3hS][βAla][Phe(4-NO2)]KAK(FITC)-NH2); 0,53
3) C[C@H](NC(=O)[C@H](CCCCN)NC(=O)[C@H](Cc1ccc([N+](=O)[O-])cc1)NC(=O)CCNC(=O)C[C@H](CO)NC(=O)[C@H](Cc1ccc([N+](=O)[O-])cc1)NC(=O)[C@@H](N)COP(=O)(O)O)C(=O)N[C@@H](CCCCNC(=S)Nc1ccc2c(c1)C(=O)OC21c2ccc(O)cc2Oc2cc(O)ccc21)C(N)=O [2d] (H-[pS][Phe(4-NO2)][β3hS][βAla][Phe(4-NO2)]KAK(FITC)-NH2); 45,81

So, C[C@H](NC(=O)[C@H](CCCCN)NC(=O)[C@H](Cc1ccc([N+](=O)[O-])cc1)NC(=O)CCNC(=O)C[C@H](CO)NC(=O)[C@H](Cc1ccc([N+](=O)[O-])cc1)NC(=O)[C@H](COP(=O)(O)O)NC(=O)C(Cc1cscn1)NC(=O)[C@@H](N)Cc1ccc([N+](=O)[O-])cc1)C(=O)N[C@@H](CCCCNC(=S)Nc1ccc2c(c1)C(=O)OC21c2ccc(O)cc2Oc2cc(O)ccc21)C(N)=O (stereo partly drawn) [2b] (H-[Phe(4-NO2)][ξAla(4-thiazolyl)][pS][Phe(4-NO2)][β3hS][βAla][Phe(4-NO2)]KAK(FITC)-NH2) ? Its Fold change to previous was 2,32

###

Measured ΔΔG (to previous) values are reported for all entries that follow.
# target: 14-3-3γ (Homo sapiens)
# Construct: made in house; host or cells: E. coli NiCo21 (DE3)
# Sequence (P61981 1-247): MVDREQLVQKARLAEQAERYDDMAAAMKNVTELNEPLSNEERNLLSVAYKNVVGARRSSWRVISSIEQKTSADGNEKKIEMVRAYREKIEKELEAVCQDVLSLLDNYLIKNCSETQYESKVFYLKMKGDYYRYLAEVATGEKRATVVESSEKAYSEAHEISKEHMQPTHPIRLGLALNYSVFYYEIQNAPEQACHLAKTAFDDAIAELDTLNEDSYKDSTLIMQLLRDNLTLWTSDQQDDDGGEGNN
# assay-text: Fluorescence anisotropy (FA) binary binding study: 14-3-3 titrated to fluorescein-labelled peptide
# measurement-conditions: Table S2; ΔG of peptide minus ΔG of previous (one amino acid longer) peptide, FA; mean of n = 3
Where a SMILES comes first, the peptide text is derived from it. [ ]: non-standard residue; d: D form. The star is where a group is joined. ξ: configuration not given here. FITC = O=C1OC2(c3ccc(O)cc3Oc3cc(O)ccc32)c2ccc(NC(=S)*)cc21; Phe(4-NO2) = N[C@@H](Cc1ccc([N+](=O)[O-])cc1)C(=O)O; ξAla(4-thiazolyl) = NC(Cc1cscn1)C(=O)O; pS = N[C@@H](COP(=O)(O)O)C(=O)O; β3hS = N[C@@H](CO)CC(=O)O; Nva = CCC[C@H](N)C(=O)O; βAla = NCCC(=O)O

Known results for compounds:
1) C[C@H](NC(=O)[C@H](CCCCN)NC(=O)[C@H](Cc1ccc([N+](=O)[O-])cc1)NC(=O)CCNC(=O)C[C@H](CO)NC(=O)[C@H](Cc1ccc([N+](=O)[O-])cc1)NC(=O)[C@@H](N)COP(=O)(O)O)C(=O)N[C@@H](CCCCNC(=S)Nc1ccc2c(c1)C(=O)OC21c2ccc(O)cc2Oc2cc(O)ccc21)C(N)=O [2d] (H-[pS][Phe(4-NO2)][β3hS][βAla][Phe(4-NO2)]KAK(FITC)-NH2); 2,23 kcal/mol
2) CCC[C@H](N)C(=O)N[C@@H](Cc1ccc([N+](=O)[O-])cc1)C(=O)NC(Cc1cscn1)C(=O)N[C@@H](COP(=O)(O)O)C(=O)N[C@@H](Cc1ccc([N+](=O)[O-])cc1)C(=O)N[C@@H](CO)CC(=O)NCCC(=O)N[C@@H](Cc1ccc([N+](=O)[O-])cc1)C(=O)N[C@@H](CCCCN)C(=O)N[C@@H](C)C(=O)N[C@@H](CCCCNC(=S)Nc1ccc2c(c1)C(=O)OC21c2ccc(O)cc2Oc2cc(O)ccc21)C(N)=O (stereo partly drawn) [2a] (H-[Nva][Phe(4-NO2)][ξAla(4-thiazolyl)][pS][Phe(4-NO2)][β3hS][βAla][Phe(4-NO2)]KAK(FITC)-NH2); 0,39 kcal/mol
3) C[C@H](NC(=O)[C@H](CCCCN)NC(=O)[C@H](Cc1ccc([N+](=O)[O-])cc1)NC(=O)CCNC(=O)C[C@H](CO)NC(=O)[C@H](Cc1ccc([N+](=O)[O-])cc1)NC(=O)[C@H](COP(=O)(O)O)NC(=O)C(Cc1cscn1)NC(=O)[C@@H](N)Cc1ccc([N+](=O)[O-])cc1)C(=O)N[C@@H](CCCCNC(=S)Nc1ccc2c(c1)C(=O)OC21c2ccc(O)cc2Oc2cc(O)ccc21)C(N)=O (stereo partly drawn) [2b] (H-[Phe(4-NO2)][ξAla(4-thiazolyl)][pS][Phe(4-NO2)][β3hS][βAla][Phe(4-NO2)]KAK(FITC)-NH2); 0,61 kcal/mol

Now look at this entry.
Here C[C@H](NC(=O)[C@H](CCCCN)NC(=O)[C@H](Cc1ccc([N+](=O)[O-])cc1)NC(=O)CCNC(=O)C[C@H](CO)NC(=O)[C@H](Cc1ccc([N+](=O)[O-])cc1)NC(=O)[C@H](COP(=O)(O)O)NC(=O)C(N)Cc1cscn1)C(=O)N[C@@H](CCCCNC(=S)Nc1ccc2c(c1)C(=O)OC21c2ccc(O)cc2Oc2cc(O)ccc21)C(N)=O (stereo partly drawn) [2c] (H-[ξAla(4-thiazolyl)][pS][Phe(4-NO2)][β3hS][βAla][Phe(4-NO2)]KAK(FITC)-NH2) was tested on 14-3-3γ (Homo sapiens), and its ΔΔG (to previous) came to -0,37 kcal/mol
